test: amyloid nucleation score (Sup35N fusion, yeast selection) (log enrichment); library NNK3; higher = more nucleation; inactive = no reads after selection;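 note: zero at mode of non-aggregating sequences after 7 days selection at 30°C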
ENDPOINT_NAME: amyloid nucleation score

Sample answers from the record:
>  <SUBSTANCE>
MSGTLCPSHNILETDCRVQV

>  <amyloid nucleation score>
inactive

$$$$
>  <SUBSTANCE>
LYESNVRCNRVVTSLFVSSQ

>  <amyloid nucleation score>
inactive

$$$$
>  <SUBSTANCE>
GYRYIVDLG

>  <amyloid nucleation score>
inactive

$$$$
>  <SUBSTANCE>
LYREFVWMEVCVCRWG

>  <amyloid nucleation score>
inactive

$$$$
>  <SUBSTANCE>
CLVSTGYHVRCVIVFMTTQG

>  <amyloid nucleation score>
inactive

$$$$

Reported amyloid nucleation score, substance GYGCVTKV : ____ inactive

Next substance: TISLGE inactive

Next substance: QDVVNPPLFY inactive

Next substance: WCVASILRQFPLCYFITQNP inactive

Next substance: CSGQVQ inactive
